Data origin: PubChem BioAssay (NCI)

- Test system: HL-60(TB) leukemia
- Assay Explanation: NCI tumour cell line growth inhibition, 48 h
We use 30 µM as the dividing line for TGI: on or above the line is satisfied, below is not satisfied.

Problem: I'd appreciate it if you could say whether CN(C)CCN=c1nc2c(c(N)n1-c1ccccc1)c(=S)n(-c1ccccc1)c(=S)n2-c1ccccc1 has TGI at least equal to 30 µM.
Solution: not satisfied

Problem: I'd appreciate it if you could say whether Cc1cc(C)c(-c2c(O)c(Br)c(-c3c(C)cc(C)c(Br)c3C)c(O)c2Br)c(C)c1Br has TGI at least equal to 30 µM.
Solution: not satisfied

Problem: I'd appreciate it if you could say whether CC(C)=CCNc1ncnc2c1ncn2CCC(=O)O has TGI at least equal to 30 µM.
Solution: satisfied

Problem: I'd appreciate it if you could say whether CC(C)(C)c1cc(C(C)(C)C)c(SC2OC(CO)C(O)C(O)C2O)c(O)c1O (stereo not drawn) has TGI at least equal to 30 µM.
Solution: not satisfied

Problem: I'd appreciate it if you could say whether COc1cc(C=NCC(=O)CSC(c2ccccc2)c2ccccc2)ccc1O has TGI at least equal to 30 µM.
Solution: not satisfied

Problem: I'd appreciate it if you could say whether C=C(c1ccccc1)c1cc2c(=O)[nH]ccc2n1C has TGI at least equal to 30 µM.
Solution: satisfied

Problem: I'd appreciate it if you could say whether CC(C)(C1=NC(C(C)(C)C)CO1)C1=N[C@@H](C(C)(C)C)CO1 (stereo partly drawn) has TGI at least equal to 30 µM.
Solution: satisfied

Problem: I'd appreciate it if you could say whether Cc1cccc(C=NC23CC4CC(CC(C4)C2)C3)c1 has TGI at least equal to 30 µM.
Solution: satisfied

Problem: I'd appreciate it if you could say whether CSCSCC(CO)NC(=O)/C=C\c1c(C)[nH]c(=O)[nH]c1=O (stereo not drawn) has TGI at least equal to 30 µM.
Solution: satisfied

Problem: I'd appreciate it if you could say whether O=C(NCc1cn(Cc2cccc(Oc3ccccc3)c2)nn1)c1cccnc1NCc1ccc(Cl)cc1 has TGI at least equal to 30 µM.
Solution: not satisfied

Problem: I'd appreciate it if you could say whether Oc1ccc(Nc2nc(Cl)c3[nH]cnc3n2)cc1 has TGI at least equal to 30 µM.
Solution: satisfied

Problem: I'd appreciate it if you could say whether OC(Cc1cccc2ccccc12)CN1CCC(c2ccccc2)CC1 (stereo not drawn) has TGI at least equal to 30 µM.
Solution: satisfied

Problem: I'd appreciate it if you could say whether c1ccc(C2N=C(c3ccccn3)C(c3ccccn3)=NC2c2ccccc2)cc1 (stereo not drawn) has TGI at least equal to 30 µM.
Solution: satisfied

Problem: I'd appreciate it if you could say whether Cc1cc2ccccc2oc(=O)/c1=N\Nc1ccccc1 has TGI at least equal to 30 µM.
Solution: satisfied

Problem: I'd appreciate it if you could say whether COc1c(NC(C)=O)c2ccccc2c2ccccc12 has TGI at least equal to 30 µM.
Solution: satisfied

Problem: I'd appreciate it if you could say whether C(=Nc1ccc(-c2nc3ccccc3s2)cc1)c1cccs1 has TGI at least equal to 30 µM.
Solution: not satisfied

Problem: I'd appreciate it if you could say whether CN(Cc1cnc2nc(N)nc(N)c2n1)c1c(Cl)cc(C(=O)NC(CCC(=O)O)C(=O)O)cc1Cl (stereo not drawn) has TGI at least equal to 30 µM.
Solution: satisfied

Problem: I'd appreciate it if you could say whether O=Cn1c2ccccc2c2ccccc21 has TGI at least equal to 30 µM.
Solution: satisfied

Problem: I'd appreciate it if you could say whether NCCCNCCSP(=O)(O)O has TGI at least equal to 30 µM.
Solution: satisfied

Problem: I'd appreciate it if you could say whether COC1CCC(OC)C(c2nc3sccn3c2/C=N/N=C(N)N)C1 (stereo not drawn) has TGI at least equal to 30 µM.
Solution: satisfied

Problem: I'd appreciate it if you could say whether CC(C)(O)c1cc(Nc2cc(Oc3cn(C4CC4)nc3C3CCOCC3)ccn2)ccn1 has TGI at least equal to 30 µM.
Solution: satisfied

Problem: I'd appreciate it if you could say whether COC(=O)C1=C(O)c2cc(OC)c(OC)c(OC)c2C(c2ccc3c(c2)OCO3)[C@@H]1C(=O)OC (stereo partly drawn) has TGI at least equal to 30 µM.
Solution: not satisfied

Problem: I'd appreciate it if you could say whether c1ccc(N2CCN(CCN3CCc4c([nH]c5ccccc45)C3c3cccnc3)CC2)cc1 (stereo not drawn) has TGI at least equal to 30 µM.
Solution: satisfied
